# tgt: Prostaglandin G/H synthase 1 (Ovis aries)
# test-summary: Inhibition of ovine COX1 at 10 uM
measured-quantity: inhibition (%)

INSERT INTO assay_data (compound, value_unit, experimental_value) VALUES
  ('CCSC[C@@H]1C[C@](C)(O)C[C@H](c2ccc(F)cc2)O1', '%', 42),
  ('CCSC[C@@H]1C[C@](C)(O)C[C@H](c2ccc(Br)cc2)O1', '%', 24),
  ('CCSC[C@@H]1C[C@](C)(O)C[C@H](c2ccc([N+](=O)[O-])cc2)O1', '%', 34),
  ('C[C@]1(O)C[C@@H](CSC#N)O[C@@H](c2ccc(Br)cc2)C1', '%', 32),
  ('C[C@]1(O)C[C@@H](CSC#N)O[C@@H](c2ccc([N+](=O)[O-])cc2)C1', '%', 29),
  ('CC(C)Cc1ccc(C(C)C(=O)O)cc1 (stereo not drawn)', '%', 96),
  ('CCSC[C@@H]1C[C@](C)(O)C[C@H](c2ccc(Cl)cc2)O1', '%', 34),
  ('C[C@]1(O)C[C@@H](CSC#N)O[C@@H](c2ccc(F)cc2)C1', '%', 34);

---

# tgt: Prostaglandin G/H synthase 1 (Ovis aries)
# Sequence (P05979 whole entry): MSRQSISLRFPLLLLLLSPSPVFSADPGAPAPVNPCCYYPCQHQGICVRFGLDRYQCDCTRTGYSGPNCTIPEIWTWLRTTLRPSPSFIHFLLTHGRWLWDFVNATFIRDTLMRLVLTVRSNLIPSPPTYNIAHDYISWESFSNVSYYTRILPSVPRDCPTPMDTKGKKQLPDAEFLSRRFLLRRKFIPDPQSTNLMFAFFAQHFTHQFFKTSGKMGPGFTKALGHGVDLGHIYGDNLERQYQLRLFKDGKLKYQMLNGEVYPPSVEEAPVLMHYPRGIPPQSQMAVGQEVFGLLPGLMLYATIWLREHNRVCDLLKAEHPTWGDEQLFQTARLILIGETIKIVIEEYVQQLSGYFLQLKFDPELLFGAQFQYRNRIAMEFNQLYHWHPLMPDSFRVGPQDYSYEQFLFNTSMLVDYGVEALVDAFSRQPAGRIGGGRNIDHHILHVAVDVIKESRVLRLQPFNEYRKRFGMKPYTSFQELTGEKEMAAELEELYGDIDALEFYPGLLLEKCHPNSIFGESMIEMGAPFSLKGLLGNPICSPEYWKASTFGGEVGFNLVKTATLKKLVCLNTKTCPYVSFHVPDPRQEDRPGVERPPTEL
pIC50: −log10 of the molar value.
measured-quantity: pIC50

INSERT INTO results (record_smiles, experimental_value) VALUES
  ('CCSC[C@@H]1C[C@](C)(O)C[C@H](c2ccc([N+](=O)[O-])cc2)O1', '< 5.00'),
  ('C[C@]1(O)C[C@@H](CSC#N)O[C@@H](c2ccc(F)cc2)C1', '< 5.00'),
  ('CCSC[C@@H]1C[C@](C)(O)C[C@H](c2ccc(F)cc2)O1', '< 5.00'),
  ('C[C@]1(O)C[C@@H](CSC#N)O[C@@H](c2ccc([N+](=O)[O-])cc2)C1', '< 5.00'),
  ('CCSC[C@@H]1C[C@](C)(O)C[C@H](c2ccc(Cl)cc2)O1', '< 5.00'),
  ('CCSC[C@@H]1C[C@](C)(O)C[C@H](c2ccc(Br)cc2)O1', '< 5.00');
